molecular target: Bcl-2-like protein 2 (Homo sapiens) (UniProt Q92843); assay: inhibitors of Bim binding to Bcl-W, primary screen, biochemical, multiplexed, bead-based flow cytometry (AID 952); conditions: Bim peptide-Bcl-W binding, at 10 µM, stronger effect = higher value;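 further: 0% = bound tracer without compound and 100% = peptide blocker; higher means less fluorescent Bim peptide bound to Bcl-W beads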
Sequence (Q92843 whole entry, looked up): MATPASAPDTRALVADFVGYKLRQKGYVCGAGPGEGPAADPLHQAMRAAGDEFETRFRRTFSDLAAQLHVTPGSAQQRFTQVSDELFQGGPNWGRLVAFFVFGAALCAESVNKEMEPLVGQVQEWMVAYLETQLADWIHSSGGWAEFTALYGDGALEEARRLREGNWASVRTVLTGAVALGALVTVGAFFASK
The campaign covered roughly 190,000 compounds. About 45 (0.02%) were called active. These entries were drawn from the full list.
For each of the compounds below, state its inhibition.
Reply numerically in %, unit not repeated.

Summary: NC(=O)CC[C@@H]1NC(=O)[C@H](CO)NC(=O)c2cc([N+](=O)[O-])cc(I)c2NCC[C@@H](C(N)=O)NC1=O , Bcl-2-like protein 2 (Homo sapiens) (UniProt Q92843), inhibition = 0

I looked up CC(C)(C)CN1CCNC(=O)C1CC(=O)NC1Cc2ccccc2C1 (stereo not given) and its inhibition for Bcl-2-like protein 2 (Homo sapiens) (UniProt Q92843) was 1

# inhibition measured on Bcl-2-like protein 2 (Homo sapiens) (UniProt Q92843) for item CC(=O)c1cccc(-n2nnnc2SCC(=O)NNC(=O)C2CCCCC2)c1 = 0

# lookup: COCC(C)n1c(C)cc(C(=O)CSc2cc(C)c3ccccc3n2)c1C (stereo not given) on Bcl-2-like protein 2 (Homo sapiens) (UniProt Q92843), inhibition = -6

Bcl-2-like protein 2 (Homo sapiens) (UniProt Q92843) data for CCOC(=O)c1c(/N=C/C2C(=O)CC(C)(C)CC2=O)sc(C)c1C ; its inhibition: 2

* * *

For each entry below, report its inhibition value.
biological target: Bcl-2-like protein 2 (Homo sapiens) (UniProt Q92843); experiment: inhibitors of Bim binding to Bcl-W, primary screen, biochemical, multiplexed, bead-based flow cytometry (AID 952); settings: Bim peptide-Bcl-W binding, at 10 µM, stronger effect = higher value;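 further: 0% = bound tracer without compound and 100% = peptide blocker; higher means less fluorescent Bim peptide bound to Bcl-W beads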
In all, about 190,000 compounds went through this assay and about 45 (0.02%) were called active. Only a sample is shown.

For record CCC(=O)N(Cc1cc2ccccc2[nH]c1=O)c1ccc(OC)cc1 the listed inhibition is 0% (inactive)

inhibition reading for O=C(CN1CCN(S(=O)(=O)c2ccc(Br)cc2)CC1)Nc1ccccc1C(=O)c1ccccc1 : -9% (inactive)

GET /value?item= CCc1nn(CCCN2CCN(c3cccc(Cl)c3)CC2)c(=O)n1CCOc1ccccc1 &field=inhibition returns -5% (inactive)

Documented inhibition of Cc1ccc(C(=O)Oc2coc(CSc3nnc(NC(=O)c4cccs4)s3)cc2=O)cc1C : -6% (inactive)

Reported inhibition ( O=C(COc1ccc(Cl)cc1[N+](=O)[O-])N1CCCCC1 ) = 3% (inactive)

Record Cc1nc(N2CCOCC2)sc1C(=O)NN . Reported inhibition: 0% (inactive)

Measured inhibition of FC(F)Oc1ccccc1NC(=S)Nc1cccc(Cl)c1Cl : -3% (inactive)

Record COC(=O)c1nn(-c2cccc(Cl)c2)ccc1=O . Reported inhibition: 1% (inactive)

Field inhibition (entry CN(C)c1ccc(Nc2c3c4c(cccc4n(C)c2=O)C(=O)c2ccccc2-3)cc1 ) reads 14% (inactive)

Form: compound = CC1CCCN(CC(O)COCc2ccccc2)C1 (stereo not given) ; inhibition = 1% (inactive)

Just so you know, measured inhibition for O=C(CCCc1ccccc1)NCc1ccccc1 came out at -1% (inactive)

Value of inhibition reported for the compound C=CCNC(=O)COC(=O)c1ccccc1C(=O)N(C)C1CCCCC1 is 0% (inactive)

Form field inhibition, entry O=C(CCSc1ccccc1)N1CCN(c2ccccc2F)CC1 : -2% (inactive)

Entry Cc1cc(C)n(-c2ccc(C(=O)O)cc2[N+](=O)[O-])n1 — recorded inhibition = 0% (inactive)

# compound Cc1nccn1CC(=O)N/N=C/c1ccc(O)c(O)c1 ; its inhibition = -5% (inactive)

For CN(C)c1nc(N)nc(Cn2nnc(-c3ccc(C(F)(F)F)cc3)n2)n1 the compound record lists inhibition as -5% (inactive)

# inhibition of CCCCN(CC)C(=O)c1ccccc1Oc1ccccc1 = -2% (inactive)

Query C1CC1Cc1noc(CN2CCN(CC3CC3)CC2)n1 yields inhibition of -3% (inactive)

Entry under test: CCCC(NC(=O)c1ccco1)c1nc2ccccc2[nH]1 (stereo not given) . Its inhibition was -5% (inactive)

The compound identified as O=S(=O)(c1ccc(F)cc1)N1CCN(C(=S)NC2CCCC2)CC1 registered its inhibition at 0% (inactive)

Per the records, this compound ( COCCn1c(=O)[nH]c(=O)c2cc(C(=O)c3cc(OC)ccc3O)cnc21 ) has inhibition equal to -3% (inactive)

// inhibition value for CCOC(=O)C1=NOC(Cn2cc(C(C)=O)c(=O)[nH]c2=O)C1 (stereo not given) : -3% (inactive)

Sample CCN(CC(=O)NCc1cccs1)S(=O)(=O)c1ccc(NC(C)=O)cc1 ; inhibition observed: 0% (inactive)

Memo: Cc1ccc(S(=O)(=O)N2CCCC2C(=O)OCc2nc3sc(C)c(C)c3c(=O)[nH]2)cc1 (stereo not given) , reported inhibition: -3% (inactive)

Form field inhibition, entry O=C(NCc1ccccc1)C1CCCN(c2nc3ccsc3c(=O)s2)C1 (stereo not given) : -4% (inactive)

Lab note: Cc1ccc(CCCOC(=O)C[N+]2(C)CCCCC2)cc1 gave inhibition of 0% (inactive)

Briefly, inhibition measured for CC(C)C(O)C1CCN(Cc2nc(Cc3ccccc3Cl)no2)CC1 (stereo not given) : 1% (inactive)

Per the records, this compound ( Cc1cc2nc(C(F)(F)F)cc(-c3cccs3)n2n1 ) has inhibition equal to 0% (inactive)

So, O=C(Nn1c(-c2ccc(Cl)cc2)nc2ccccc2c1=O)c1cccnc1Cl ? Its inhibition was 10% (inactive)

Briefly, inhibition measured for Cc1ccc(S(=O)(=O)N(C)C)cc1NC(=O)COC(=O)c1c(C)noc1C : 0% (inactive)

Sample Cc1noc(C)c1S(=O)(=O)N(C)Cc1ccccc1 ; inhibition observed: -1% (inactive)

# inhibition (compound: COc1ccc(NS(=O)(=O)c2ccc(NC(=O)c3ccc(N(C)S(C)(=O)=O)cc3)cc2)cc1 ) is -8% (inactive)

The compound listed as O=C(N/N=C/c1ccc(OCc2ccccc2)cc1)c1ccc(O)cc1 has a reported inhibition of 0% (inactive)

Input COCCNC(=O)C(c1ccc(O)cc1)N(C(=O)CCC(=O)Nc1nccs1)c1ccc(C)cc1 (stereo not given) . Output inhibition: -3% (inactive)

Query O=C(NC(=S)N1CCN(Cc2ccccc2)CC1)c1ccccc1 yields inhibition of -3% (inactive)

inhibition in this record for CCOC(=O)C1=C(CN2CCCCCC2)NC(=O)NC1c1cccc([N+](=O)[O-])c1 (stereo not given) : -2% (inactive)

Note to self: inhibition recorded for CCC(C)(C)NC(=O)CN(C(=O)CCC(=O)Nc1cc(C)ccn1)c1ccc2c(c1)OCCO2 was 1% (inactive)

The value of inhibition measured for the compound c1ccc2c(c1)OCCOCCOCCO2 turned out to be 0% (inactive)

What the record says about Cc1ccc(NC(=O)CSc2nnc(COc3ccccc3C)o2)cc1 : inhibition is -1% (inactive)

Notebook: CCOc1cccc2c1OC1(CCCCC1)N1N=C(c3cccnc3)CC21 (stereo not given) , inhibition read as -4% (inactive)

So for CCCCNC(=O)C1CCC(CNS(=O)(=O)c2ccc(NC(C)=O)cc2)CC1 (stereo not given) , the logged inhibition turned out to be 1% (inactive)

The compound Cc1cc(C)c2c(n1)sc1c(=O)n(-c3ccccc3)c(=O)[nH]c12 showed inhibition equal to -3% (inactive)

So, COc1ccccc1N1CCN(C(=O)C(=O)N/N=C/c2ccccc2F)CC1 ? Its inhibition was -3% (inactive)

For CCN(CC)CCNS(=O)(=O)c1ccc(/C=C/C(=O)O)cc1 the compound record lists inhibition as -2% (inactive)

So for CCc1ccc(CN(C)C(=O)CCc2nnc(-c3ccc(-c4ccccc4)cc3)o2)nc1 , the logged inhibition turned out to be 1% (inactive)

* * *

target: Bcl-2-like protein 2 (Homo sapiens) (UniProt Q92843); experiment: inhibitors of Bim binding to Bcl-W, primary screen, biochemical, multiplexed, bead-based flow cytometry (AID 952); conditions: Bim peptide-Bcl-W binding, at 10 µM, stronger effect = higher value;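 further: 0% = bound tracer without compound and 100% = peptide blocker; higher means less fluorescent Bim peptide bound to Bcl-W beads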
About 45 (0.02%) of roughly 190,000 compounds were called active. The list is a sample of the results.
Value type: inhibition (%)
Note: unit % is implicit; provide only the numeric part.

Just so you know, measured inhibition for CCOc1cnc(C(=O)NNC(=O)c2ccccc2Br)o1 came out at 0

Notebook: Nc1nnc(SCC(=O)OCc2ccc(Cl)c(Cl)c2)s1 , inhibition read as 3

// recorded inhibition for O=C(c1cccs1)n1nc(NCc2ccccc2)nc1NCc1ccccc1 : 0

Value of inhibition reported for the compound Cc1cc(/C=N/NC(=O)c2cccnc2)c(C)n1CC(C)C is 1

Kindly note the recorded inhibition for Cc1cc(OCCCN2CCN(Cc3ccccc3)CC2)ccc1[N+](=O)[O-] , which is 0

C=CCc1ccc(OCC(O)CN2CCN(Cc3ccccc3)CC2)c(OC)c1 (stereo not drawn) yielded inhibition of -2

Recorded result, CCOC(=O)c1cc(-c2ccc(F)cc2)n(CC(=O)NCc2ccccn2)c1C , inhibition: 0

Item: CCc1ccc(-n2c(SCc3cc(=O)n4cc(Br)ccc4n3)nc3[nH]ncc3c2=O)cc1 | inhibition: -4

# inhibition (compound: Cc1cc(C)n2nc(C(=O)N3CCN(Cc4ccc5c(c4)OCO5)CC3)nc2n1 ) is -2

Entry Cc1cccc(C(=O)N2CCc3c([nH]c4ccccc34)C2CC(C)C)n1 (stereo not drawn) , inhibition reported as 3

Data point: O=C(OCC(=O)c1cccs1)c1ccc([N+](=O)[O-])o1 ; inhibition = 0

Recorded result, CCN1CCN(CC(=O)Nc2sc3c(c2C#N)CCC3)CC1 , inhibition: 3

Sure, the documented inhibition for OCCCC1CCCCN1Cc1nc(Cc2ccccc2Cl)no1 (stereo not drawn) is 4

Entry COc1cc(NC(=S)NCc2ccco2)c(OC)cc1Cl ; inhibition = -1

The value of inhibition measured for the compound Cc1ccnc(NC(=O)CCCOc2ccccc2)c1 turned out to be -1

// sample O=C(CC1C(=O)NCCN1CC(c1ccccc1)c1ccccc1)NCCc1cn[nH]c1 (stereo not drawn) , its inhibition was -4

Cc1cc(C)cc(NC(=O)N2CCCCCCC2)c1 yielded inhibition of 0

Memo: O=C1Oc2ccccc2C(=O)/C1=C/c1ccccc1O , reported inhibition: 0

Value of measured inhibition for the entry CC1(C)CC(=O)C=C(N2CCOCC2)C1 : -2

Lab book: inhibition of COc1ccc(-c2csc(NC(=O)COC(=O)c3ccc(Br)o3)n2)cc1 noted as -1

Entry under test: COc1cc2c(cc1NC(=O)COC(=O)/C=C/c1ccccc1)oc1ccccc12 . Its inhibition was -7

Memo: CC(=O)Nc1ccc(NC(=O)CSc2nnc(COc3ccccc3C)n2CC2CCCO2)cc1 (stereo not drawn) , reported inhibition: -2

get_value(item= O=C(CNC1CCCCC1)NCC1(c2ccccc2)CCCC1 , readout=inhibition) returns 0

The values you see were collected from PubChem BioAssay AID952.
